Assay: Confirmatory qHTS for small molecule stabilizers of the endoplasmic reticulum resident proteome: Secreted ER Calcium Modulated Protein (SERCaMP) assay (AID 1508628); further: nearly all actives have a fitted effect of over 40% in size
Conditions: SERCaMP secreted luciferase ER calcium/proteostasis reporter; series mostly up to 76.3 µM
Inconclusive results are not listed. Calls of active or inactive are those of the source. The call rests on the fitted dose curve; in most records, active means well fitted inhibition curve with a large enough effect; inconclusive means small, poorly fitted or top-dose-only effect; inactive means no such curve, though single readings can be large or run the other way.
Outcome codes: true (1) = active, false (0) = inactive

{"chemical-string": "C=CCN1CCc2nc(N)sc2CC1", "group-label": "false (0)"}
{"chemical-string": "CCOc1cc(OCC)c(C(=O)CCC(=O)O)cc1OCC", "group-label": "false (0)"}
{"chemical-string": "CCCCCCCCCCCCCCC[C@H](O)[C@@H](N)CO", "group-label": "false (0)"}
{"chemical-string": "CN1CCC[C@@H]1CCO[C@](C)(c1ccccc1)c1ccc(Cl)cc1", "group-label": "true (1)"}

###

Consider the following molecules and their measured max response readings.
System: KB-3-1
Assay: Cytotoxic Profiling of Annotated Libraries Using Quantitative High-Throughput Screening (AID 1296008); further: nearly all actives have a fitted effect of over 60% in size; on max response: on the % scale 0 is the no-effect control and ±100 the full control effect
Details: Five cell lines viability, CellTiter-Glo ATP luminescence, 48-72 h; hits give low values
Results filed as inconclusive are left out. Activity calls are given as the source filed them. Calls follow the shape of the dose curve; as a rule, active = well fitted inhibition curve with a large enough effect; inconclusive = small, poorly fitted or top-dose-only effect; inactive = flat fitted curve, though single readings scatter.

{"molecule": "Cc1c[nH]c2ccccc12", "assayed-target": "KB-3-1", "max response": "8.35% (inactive)"}
{"molecule": "CC(=O)Nc1ccc(OCC(O)CNC(C)C)cc1 (configuration not stated)", "assayed-target": "KB-3-1", "max response": "-4.81% (inactive)"}
{"molecule": "Nc1nc(N)c(-c2ccccc2)s1", "assayed-target": "KB-3-1", "max response": "-0.967% (inactive)"}
{"molecule": "CCCCCCCCCCCCSCCOCCO", "assayed-target": "KB-3-1", "max response": "1.68% (inactive)"}
{"molecule": "Cc1cc(-c2ccccc2)nnc1NCCN1CCOCC1", "assayed-target": "KB-3-1", "max response": "-13.9% (inactive)"}
{"molecule": "CCN(CC)CCOc1ccc2c(c1)C(=O)c1cc(OCCN(CC)CC)ccc1-2", "assayed-target": "KB-3-1", "max response": "41.3% (inactive)"}
{"molecule": "Cc1cccc(C)c1NC(=O)CN1CCCCCC1", "assayed-target": "KB-3-1", "max response": "2.19% (inactive)"}
{"molecule": "N[C@H](C(=O)O)[C@@H](O)c1ccc(O)c(O)c1", "assayed-target": "KB-3-1", "max response": "-1.88% (inactive)"}
{"molecule": "COc1ccc(-c2cc(C(F)F)nn2-c2ccc(S(N)(=O)=O)cc2)cc1F", "assayed-target": "KB-3-1", "max response": "15.2% (inactive)"}
{"molecule": "CC(=O)O[C@]1(C(C)=O)CC[C@H]2[C@@H]3C=C(Cl)C4=CC(=O)CC[C@]4(C)[C@H]3CC[C@@]21C", "assayed-target": "KB-3-1", "max response": "2.1% (inactive)"}
{"molecule": "CCCN(CCc1cccs1)[C@H]1CCc2c(O)cccc2C1", "assayed-target": "KB-3-1", "max response": "5.8% (inactive)"}
{"molecule": "Oc1ccccc1C=NCc1ccccc1", "assayed-target": "KB-3-1", "max response": "-4.65% (inactive)"}

###

System: HEK293
Test: Cytotoxic Profiling of Annotated Libraries Using Quantitative High-Throughput Screening (AID 1296008); further: nearly all actives have a fitted effect of over 60% in size
Conditions: Five cell lines viability, CellTiter-Glo ATP luminescence, 48-72 h
Records with an inconclusive call do not appear. The source made the active and inactive calls. Calls follow the shape of the dose curve; as a rule, active = well fitted inhibition curve with a large enough effect; inconclusive = small, poorly fitted or top-dose-only effect; inactive = flat fitted curve, though single readings scatter.
Outcome codes: 1 for active, 0 for inactive

{"compound": "CN1CCc2cccc3c2[C@H]1Cc1ccc(O)c(O)c1-3", "group-label": 1}
{"compound": "CCN(CC)CCNc1ccc(CO)c2sc3ccccc3c(=O)c12", "group-label": 1}
{"compound": "CNCCCCOc1ccccc1Cc1ccccc1", "group-label": 1}
{"compound": "CCCCCCCCCCCCCC[N+](C)(C)Cc1ccccc1", "group-label": 1}
{"compound": "Oc1c(Cl)cc(Cl)c(Cl)c1Cc1c(O)c(Cl)cc(Cl)c1Cl", "group-label": 1}
{"compound": "O=C1c2cccc3c2[C@H](CCC3)CN1[C@@H]1CN2CCC1CC2", "group-label": 1}
{"compound": "O=C(Nc1ncc([N+](=O)[O-])s1)c1cccs1", "group-label": 1}
{"compound": "O=C(N/N=C/c1ccc([N+](=O)[O-])o1)c1ccc(O)cc1", "group-label": 1}
{"compound": "CC(C)n1c(/C=C/[C@@H](O)C[C@@H](O)CC(=O)O)c(-c2ccc(F)cc2)c2ccccc21", "group-label": 1}
{"compound": "C[C@H]1O[C@@H](O[C@H]2CC[C@@]3(C)[C@H](CC[C@@H]4[C@@H]3C[C@@H](O)[C@]3(C)[C@@H](C5=CC(=O)OC5)CC[C@]43O)C2)C[C@H](O)[C@@H]1O[C@H]1C[C@H](O)[C@H](O[C@H]2C[C@H](O)[C@H](O[C@@H]3O[C@H](CO)[C@@H](O)[C@H](O)[C@H]3O)[C@@H](C)O2)[C@@H](C)O1", "group-label": 1}
{"compound": "O=C(O)CCNC(=O)c1ccccc1", "group-label": 0}
{"compound": "CN1CCC[C@@H]1CCO[C@](C)(c1ccccc1)c1ccc(Cl)cc1", "group-label": 1}
{"compound": "CCN(CC)CCOc1ccccc1C(=O)CCc1ccccc1", "group-label": 1}
{"compound": "O=C(Nc1ccc([N+](=O)[O-])cc1)Nc1ccc([N+](=O)[O-])cc1", "group-label": 1}
{"compound": "CCCCc1cc2ccccc2c(OCCN(C)C)n1", "group-label": 1}
{"compound": "C#C[C@]1(O)CC[C@H]2[C@@H]3CCC4=Cc5oncc5C[C@]4(C)[C@H]3CC[C@@]21C", "group-label": 1}
{"compound": "CCCCCCCCNC(C)C(O)c1ccc(SC(C)C)cc1 (stereo not given)", "group-label": 1}
{"compound": "CCCCCCCCCCCCOCCOCCOCCOCCOCCOCCOCCOCCOCCO", "group-label": 1}
{"compound": "Cc1ccc2c(Br)cc(Br)c(O)c2n1", "group-label": 1}
{"compound": "CN(C)CCOC(=O)C(c1ccccc1)C1(O)CCCC1 (stereo not given)", "group-label": 0}
{"compound": "NS(=O)(=O)c1ccc(Cl)c(S(N)(=O)=O)c1", "group-label": 0}
{"compound": "CCCCN=C(N)N=C(N)N", "group-label": 0}
{"compound": "CCOC(=O)c1c(N)sc2c1CCN(Cc1ccccc1)C2", "group-label": 1}
{"compound": "CCC(Cc1c(I)cc(I)c(N)c1I)C(=O)O (stereo not given)", "group-label": 0}
{"compound": "COc1ccc(C(=O)c2ccccc2)c(O)c1", "group-label": 0}
{"compound": "CC(=O)OC[C@H]1O[C@@H](n2ncc(=O)[nH]c2=O)[C@H](OC(C)=O)[C@@H]1OC(C)=O", "group-label": 1}
{"compound": "CC(=O)Nc1ccc(OC(=O)c2ccccc2OC(C)=O)cc1", "group-label": 0}
{"compound": "O=C1OC2(c3ccccc31)c1cc(Br)c(O)c(Br)c1Oc1c2cc(Br)c(O)c1Br", "group-label": 0}
{"compound": "CCO[C@@H]1O[C@H](C(COCc2ccccc2)OCc2ccccc2)[C@H](OCc2ccccc2)[C@H]1O (stereo not given in full)", "group-label": 1}
{"compound": "CCOC(=O)[C@@](C)(N)Cc1ccc(O)c(O)c1", "group-label": 1}
{"compound": "OC[C@H]1O[C@@H]2O[C@H]3[C@H](O)[C@@H](O)[C@@H](O[C@H]4[C@H](O)[C@@H](O)[C@@H](O[C@H]5[C@H](O)[C@@H](O)[C@@H](O[C@H]6[C@H](O)[C@@H](O)[C@@H](O[C@H]7[C@H](O)[C@@H](O)[C@@H](O[C@H]8[C@H](O)[C@@H](O)[C@@H](O[C@H]1[C@H](O)[C@H]2O)O[C@@H]8CO)O[C@@H]7CO)O[C@@H]6CO)O[C@@H]5CO)O[C@@H]4CO)O[C@@H]3CO", "group-label": 0}
{"compound": "CCN(CC)CCOC(=O)C1(c2ccccc2)CCCC1", "group-label": 0}
{"compound": "COc1ccc(CCN(C)CCCN2CCc3cc(OC)c(OC)cc3CC2=O)cc1OC", "group-label": 0}
{"compound": "Cc1cc2c(OCC(CNC(C)(C)C)OC(=O)c3ccccc3)cccc2[nH]1 (stereo not given)", "group-label": 0}
{"compound": "CCCCCN=C(N)N/N=C/c1c[nH]c2ccc(OC)cc12", "group-label": 1}
